- Method Notes: qHTS assay for small molecule activators of the p53 signaling pathway (AID 651743); also: series mostly up to about 92 µM; % of control where 0% means no effect
- Experimental Setup: HCT-116 p53RE-bla, beta-lactamase FRET ratio, 16 h; stronger effect = higher value
Results filed as inconclusive are left out.
The following molecules are shown together with reported activation values.
Hi! Could you send only the number? It should be in %, unit omitted.

Recorded activation, per entry:
>  <Structure Notation>
CC(=O)S[C@@H]1CC2=CC(=O)CC[C@]2(C)[C@H]2CC[C@@]3(C)[C@@H](CC[C@@]34CCC(=O)O4)[C@H]12

>  <Quantity Measured>
activation

>  <Measured>
29.9

$$$$
>  <Structure Notation>
O=S(=O)(c1ccccc1)N(CC(F)(F)F)c1ccc(C(O)(C(F)(F)F)C(F)(F)F)cc1

>  <Quantity Measured>
activation

>  <Measured>
23.4

$$$$
>  <Structure Notation>
CCCCCCCC/C=C\CCCCCCCC(=O)OC[C@@H](O)[C@H]1OC[C@H](O)[C@H]1O

>  <Quantity Measured>
activation

>  <Measured>
1.59

$$$$

Here is the next item to consider.
In: Recorded activation of CN(C)Cc1ccccc1 , please.
Out: -3.48

====

- Test system: HaCat
- Method Notes: Cytotoxic Profiling of Annotated Libraries Using Quantitative High-Throughput Screening (AID 1296008); also: nearly all actives have a fitted effect of over 60% in size; as to max response: % is scaled to controls: 0 for no effect and ±100 for the full control effect
- Experimental Setup: Five cell lines viability, CellTiter-Glo ATP luminescence, 48-72 h; stronger effect = lower value
Results filed as inconclusive are left out.
Below, each entry is listed alongside its reported max response.
Numeric only. Scale: %

>  <Molecule>
CC[N+]1(C/C2=C/CCCCCC2)CCC(NC(=O)C2c3cc(Cl)ccc3Oc3ccc(Cl)cc32)CC1 (stereo not given)

>  <max response (%)>
-26

$$$$
>  <Molecule>
O=C(Nc1ccc(-n2nc(C(F)(F)F)cc2C(F)(F)F)cc1)c1ccncc1F

>  <max response (%)>
3.3

$$$$
>  <Molecule>
C=CC1(C)CC(O)C(C(=C)C(=O)OC)C(O)C1C(=C)CO (stereo not given)

>  <max response (%)>
-2.8

$$$$

In: GET /values?readout=max response&item= N#Cc1ccc(COC[C@H]2O[C@@H](n3c(NCc4ccc(Cl)c(Cl)c4)nc4c(N)ncnc43)[C@H](O)[C@@H]2O)cc1
Out: -23

====

- System: NIH3T3
- Method Notes: Cytotoxic Profiling of Annotated Libraries Using Quantitative High-Throughput Screening (AID 1296008); also: nearly all actives have a fitted effect of over 60% in size
- Experimental Setup: Five cell lines viability, CellTiter-Glo ATP luminescence, 48-72 h
Results filed as inconclusive are left out. Calls of active or inactive are those of the source. The call rests on the fitted dose curve; in most records, active means well fitted inhibition curve with a large enough effect; inconclusive means small, poorly fitted or top-dose-only effect; inactive means flat fitted curve, though single readings scatter.
Pick one and only one: active, inactive

>  <Compound>
C=C1CCC2C(C)(C(=O)O)CCCC2(C)C1CCC1=CCOC1=O (centres undefined)

>  <Measurement Target>
NIH3T3

>  <Cat>
inactive

$$$$
>  <Compound>
CC(=O)NC[C@H]1CN(c2ccc(N3CCSCC3)c(F)c2)C(=O)O1

>  <Measurement Target>
NIH3T3

>  <Cat>
inactive

$$$$
>  <Compound>
C=CCCN1CCC2(CC1)CN(C(=O)c1c(F)cccc1F)c1ccc(Cl)cc12

>  <Measurement Target>
NIH3T3

>  <Cat>
inactive

$$$$
>  <Compound>
CC(=O)NCc1cccc(OC[C@@H](O)CNCCc2ccc(NS(=O)(=O)c3ccccc3)cc2)c1

>  <Measurement Target>
NIH3T3

>  <Cat>
inactive

$$$$
>  <Compound>
CC(C)n1nc(C#Cc2ccccc2)c2c(N)ncnc21

>  <Measurement Target>
NIH3T3

>  <Cat>
active

$$$$

In: Outcome logged for Cc1cn(CCN2CCN(c3ccccc3-c3cc(C#N)cc(C(=O)NCCCN4CCCC4)c3)CC2)c2ccccc12 in this assay:
Out: active

In: Entry CNc1cccc(CCOc2ccc3c(c2)CN(CC(F)(F)F)C(=O)[C@H](CC(=O)O)C3)n1 please
Out: active

In: Cool, now CC1(C(=O)Nc2ccc(F)nc2)CCCN1c1nc(Nc2cc(C3CC3)[nH]n2)c2cccn2n1 (centres undefined)
Out: active

In: // repeat for CC1=CC2/C=C(\C)CCC(O)C/C=C/C(=O)OC23C(=O)NC(CC(C)C)C3C1C (centres undefined) and report
Out: inactive

In: Another compound to look at: COCC(c1ccc(C(F)(F)F)cc1)N1CCN(C2(C)CCN(C(=O)c3c(C)ncnc3C)CC2)CC1C (centres undefined)
Out: inactive

In: O=C(/C=C/c1ccccc1O)O[C@@H]1O[C@H](CO)[C@@H](O)[C@H](O)[C@H]1O , same question.
Out: inactive

In: Subsequent entry: CN1CCN(S(=O)(=O)c2ccc(-c3cnc(N)c(C(=O)Nc4cccnc4)n3)cc2)CC1
Out: active

In: Another compound: CC[C@@H](C)Nc1cc(C(=O)NC2CC3CCC(C2)N3c2ccc(C(=O)C3CC3)cn2)c(C)cc1C(N)=O (some centres undefined)
Out: active

In: Same question for O=c1[nH]c2ccccc2n1CCN1CCN(c2cccc(C(F)(F)F)c2)CC1 please.
Out: inactive

In: Moving on to the next compound: Cc1c(Cl)cccc1S(=O)(=O)Nc1nc(NCCc2ccccc2)nc2c1CN(Cc1ccccc1)CC2
Out: inactive

In: What would you report for CC(=O)OCC(=O)[C@@]12O[C@@H]1C[C@H]1[C@@H]3CC=C4C[C@@H](O)CC[C@]4(C)[C@H]3CC[C@@]12C ?
Out: inactive

In: And the next one, C=C1C(=O)OC2C1CCC1(C)C(O)CC=C(C)C21 (centres undefined) ?
Out: inactive

In: Input CC1(C)CCC(C)(C)c2cc(C#Cc3ccc(C(=O)O)cc3)ccc21
Out: inactive

In: Would you kindly repeat that for C/C=C/[C@@H]1C=C[C@@H]2C[C@H](C)CC[C@H]2[C@]1(C)/C(O)=C1/C(=O)[C@@H](CO)N(C)C1=O ?
Out: inactive
